organism: Ovis aries; assay: Inhibition of sheep brain tubulin polymerization by UV spectrophotometric analysis; parameters: concentration or dose not given beside the values; details: concentration not given here
METRIC_NAME: inhibition (%)

Example cases with answers are listed next.
COMPOUND	inhibition / %
COc1ccc2[nH]cc(/C(=C/C#N)Cc3cccnc3)c2c1	33
N#C/C(=C\c1ccc2c(c1)OCO2)c1c[nH]c2ccccc12	35

(A) N#CC(Cc1cccnc1)c1c[nH]c2ccccc12 (centres undefined)
(B) COc1ccc(/C=C(\C#N)c2c[nH]c3ccccc23)cc1OC
(C) COc1ccc2[nH]cc(/C(C#N)=C/C=C/c3cccnc3)c2c1
[in] Arrange items by their inhibition values in increasing order. Answer format: the labels, in the requested order.
[out] C, A, B

(A) COc1cc(/C=C(\C#N)c2c[nH]c3ccccc23)cc(OC)c1O
(B) N#C/C(=C\c1cccnc1)c1c(-c2ccccc2)[nH]c2ccccc12
(C) N#C/C(=C\c1ccc(Cl)cc1)c1c[nH]c2ccccc12
(D) COc1ccc(/C=C(\C#N)c2c[nH]c3ccccc23)c(OC)c1
[in] Arrange items by their inhibition values in increasing order. Answer format: the labels, in the requested order.
[out] C, A, B, D
(C: 13%, A: 22%, B: 33%, D: 76%)

###

species: Ovis aries; assay: Inhibition of sheep brain tubulin polymerization by UV spectrophotometric analysis; design: concentration or dose not given beside the values; details: concentration not given here
METRIC_NAME: inhibition (%)

Example cases with answers are listed next.
SMILES_INPUT	RESULT_UNITS	inhibition
COc1cc(OC)c(OC)cc1/C=C(\C#N)c1c[nH]c2ccccc12	%	32
COc1ccc2c(c1)c(/C(C#N)=C/c1cccnc1)cn2C	%	53
COc1cccc(/C=C(\C#N)c2c[nH]c3ccccc23)c1	%	37

(A) N#C/C(=C\c1cccnc1)c1c(-c2ccsc2)[nH]c2ccccc12
(B) N#C/C(=C\c1cccnc1)c1c[nH]c2ccccc12
(C) N#C/C(=C\c1ccc(F)cc1)c1c[nH]c2ccccc12
(D) N#C/C(=C\c1c[nH]c2ccccc12)c1cccnc1
[in] Order the items by recorded inhibition; the first position goes to the largest value. Answer format: the labels, in the requested order.
[out] A, D, C, B
(A: 70%, D: 45%, C: 22%, B: 11%)

(I) COc1cc(/C=C(\C#N)c2c[nH]c3ccccc23)cc(OC)c1
(II) N#C/C(=C\c1ccc(C(F)(F)F)cc1)c1c[nH]c2ccccc12
[in] Hey, which is lower on measured inhibition, I or II ? Return value: the label identifying the chosen record.
[out] I
(I: 31%, II: 57%)
